- Protocol notes: Solubility
- Format: physicochemical
- Condition details: water
Value type: Solubility in water

[[record]]
compound_smiles = "CCCCOC(=O)c1ccc2nc(N3C(=O)[C@@]4(C)[C@@H]5CC[C@@H](O5)[C@@]4(C)C3=O)sc2c1"
value_type = "Solubility in water"
meas_value = "Good"

[[record]]
compound_smiles = "C[C@@]12C(=O)N(c3nc4ccc(OC(F)(F)F)cc4s3)C(=O)[C@]1(C)[C@H]1CC[C@@H]2O1"
value_type = "Solubility in water"
meas_value = "Fair"

